The measured values listed here are drawn from patent US20230381159A1.

Molecular target: SARS-CoV-2-RBD-hACE2 PPI (Severe acute respiratory syndrome coronavirus 2, UniProt P0DTC2)
Experiment: biochemical
Format: binding, SARS-CoV-2 / human
Conditions: IC50, SARS-CoV-2 S-ACE2 assay
propertyName: IC50
The number alone won't do; follow it with the unit.

Enquiry: Which IC50 value belongs to O=C(Nc1ccc2cc(S(=O)(=O)O)cc(O)c2c1)c1ccc(-c2ccc(C(=O)Nc3ccc4cc(S(=O)(=O)O)cc(O)c4c3)cc2)cc1 [Compound A5] ?
Return: 160 nM

====

Can you tell me IC50 for the items I'm about to list?
Target: UniProt:P59594
Assay: biochemical
Assay type: binding, SARS-CoV / human
Details: read-out: IC50, SARS-CoV S-hACE2 assay
Give just the number in µM; leave the unit off.

Enquiry: What value of measured IC50 is listed for Cc1cc(-c2ccc(/N=N/c3ccc4c(S(=O)(=O)O)cc(S(=O)(=O)O)c(N)c4c3O)c(C)c2)ccc1/N=N/c1ccc2c(S(=O)(=O)O)cc(S(=O)(=O)O)c(N)c2c1O ?
Return: 1.3

Enquiry: Check Nc1c(/N=N/c2ccc(-c3ccc(/N=N/c4cc(S(=O)(=O)O)c5ccccc5c4N)cc3)cc2)cc(S(=O)(=O)O)c2ccccc12 too.
Return: 3.9

Enquiry: Same again, this time with CCOc1ccc(N=Nc2ccc(-c3ccc(N=Nc4c(O)ccc5cc(S(=O)(=O)O)cc(S(=O)(=O)O)c45)c(C)c3)cc2C)cc1
Return: 9.9

Enquiry: Now try Nc1ccc2cc(S(=O)(=O)O)cc(O)c2c1N=Nc1ccc(-c2ccc(N=Nc3c(N)ccc4cc(S(=O)(=O)O)cc(O)c34)cc2)cc1 .
Return: 2.6
